src = paper PMC8151276

- TARGET UNDER TEST: GABBR1 (Homo sapiens, UniProt Q9UBS5)
- Construct: purchased Promega (in-house HiBiT-GPCR construct library, NanoBRET)
- Sequence (Q9UBS5 15-961 limits assumed): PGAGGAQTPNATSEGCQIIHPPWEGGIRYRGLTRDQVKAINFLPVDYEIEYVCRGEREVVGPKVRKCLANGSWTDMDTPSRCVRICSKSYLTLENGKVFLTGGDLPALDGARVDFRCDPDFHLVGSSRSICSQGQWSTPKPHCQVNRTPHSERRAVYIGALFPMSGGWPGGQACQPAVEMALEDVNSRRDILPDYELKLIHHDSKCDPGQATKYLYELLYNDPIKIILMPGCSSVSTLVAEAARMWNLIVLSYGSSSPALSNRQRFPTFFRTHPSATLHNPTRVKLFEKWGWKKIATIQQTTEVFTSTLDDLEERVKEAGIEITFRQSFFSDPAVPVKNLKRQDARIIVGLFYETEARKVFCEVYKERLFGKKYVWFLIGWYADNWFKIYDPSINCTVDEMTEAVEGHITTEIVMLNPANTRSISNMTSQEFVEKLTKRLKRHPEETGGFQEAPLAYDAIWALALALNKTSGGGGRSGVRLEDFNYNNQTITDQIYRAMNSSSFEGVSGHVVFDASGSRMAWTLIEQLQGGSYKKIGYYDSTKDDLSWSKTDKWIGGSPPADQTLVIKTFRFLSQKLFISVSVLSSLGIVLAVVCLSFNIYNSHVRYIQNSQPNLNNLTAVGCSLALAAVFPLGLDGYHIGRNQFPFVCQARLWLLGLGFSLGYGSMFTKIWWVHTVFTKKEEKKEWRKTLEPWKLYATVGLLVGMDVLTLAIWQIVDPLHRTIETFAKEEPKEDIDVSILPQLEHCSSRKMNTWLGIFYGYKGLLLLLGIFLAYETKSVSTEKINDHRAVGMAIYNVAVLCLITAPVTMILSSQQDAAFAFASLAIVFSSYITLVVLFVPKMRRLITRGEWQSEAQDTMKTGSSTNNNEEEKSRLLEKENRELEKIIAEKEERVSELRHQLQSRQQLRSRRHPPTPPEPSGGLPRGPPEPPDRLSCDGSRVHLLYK
- EXPERIMENT NOTES: NanoBRET screen HiBiT-GABBR1 in HEK293
- Format: binding
- EXPERIMENTAL CONTEXT: GABBR1; tracer 0.1μM
Binary call on NanoBRET Fold Response with cut-off 0.9: strictly below means 1 (yes), and equality or higher means 0 (no).

Report whether reported NanoBRET Fold Response is lower than 0.9 (strictly) for O=C(CCc1ccc2n1[B-](F)(F)[N+]1=C(c3ccc[nH]3)C=CC1=C2)NCCOCCOCCNC(=O)OCCOCCN1CCN(C2=Nc3ccccc3Sc3ccccc32)CC1
0 (no)

Please give the result for Cc1cc2c(s1)Nc1ccccc1N=C2N1CCN(CCCNC(=O)CCOCCOCCOCCOCCNC(=O)CCc2ccc3n2[B-](F)(F)[N+]2=C(c4ccc[nH]4)C=CC2=C3)CC1 too.
0 (no)

Please give the result for COc1ccccc1N1CCN(CCCCN2C(=O)c3ccc(CNC(=O)CCOCCNC(=O)c4ccc(CNC(=O)CCc5ccc6n5[B-](F)(F)[N+]5=C(c7ccc[nH]7)C=CC5=C6)cc4)cc3C2=O)CC1 too.
1 (yes)

Please give the result for CCCn1c(=O)c2[nH]c(-c3ccc(OCC(=O)NCCNC(=O)CCOCCNC(=O)c4ccc(CNC(=O)CCc5ccc6n5[B-](F)(F)[N+]5=C(c7ccc[nH]7)C=CC5=C6)cc4)cc3)nc2n(CCC)c1=O too.
1 (yes)

Please give the result for O=C(CCc1ccc2n1[B-](F)(F)[N+]1=C(c3ccc[nH]3)C=CC1=C2)NCc1ccc(C(=O)NCCOCCC(=O)N[C@@H]2CC[C@@]3(O)[C@H]4Cc5ccc(O)c6c5[C@@]3(CCN4CC3CC3)[C@H]2O6)cc1 [Naltrexone-3-NB590] too.
0 (no)

Please give the result for N#CN=C(NCCCOc1cccc(CN2CCCCC2)c1)NCCNC(=O)CCOCCOCCOCCOCCNC(=O)CCc1ccc2n1[B-](F)(F)[N+]1=C(c3ccc[nH]3)C=CC1=C2 too.
0 (no)

Please give the result for Cc1nc2n(c(=O)c1CCN1CCC(c3noc4cc(F)ccc34)CC1)CCCC2OC(=O)NCCOCCOCCOCCOCCNC(=O)CCc1ccc2n1[B-](F)(F)[N+]1=C(c3ccc[nH]3)C=CC1=C2 (centres unmarked) too.
0 (no)

###

- TARGET UNDER TEST: GALR3 (Homo sapiens, UniProt O60755)
- Construct: purchased Promega (in-house HiBiT-GPCR construct library, NanoBRET)
- Sequence (O60755 whole entry): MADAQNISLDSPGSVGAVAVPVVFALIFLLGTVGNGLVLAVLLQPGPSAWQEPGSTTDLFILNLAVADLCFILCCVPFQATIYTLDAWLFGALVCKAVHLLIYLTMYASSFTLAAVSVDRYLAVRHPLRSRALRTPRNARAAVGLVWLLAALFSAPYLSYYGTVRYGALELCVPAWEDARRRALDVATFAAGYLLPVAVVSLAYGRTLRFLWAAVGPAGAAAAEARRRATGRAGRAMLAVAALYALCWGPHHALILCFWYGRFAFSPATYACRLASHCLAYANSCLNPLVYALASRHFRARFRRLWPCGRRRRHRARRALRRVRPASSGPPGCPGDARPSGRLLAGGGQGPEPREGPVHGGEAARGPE
- EXPERIMENT NOTES: NanoBRET screen HiBiT-GALR3 in HEK293
- Assay type: binding
- EXPERIMENTAL CONTEXT: GALR3; tracer 1μM
Kindly supply the reported NanoBRET Fold Response values for the records listed here.
Simply state the number, no unit and no words.

Quick one: NanoBRET Fold Response of O=C(CCOCCOCCOCCOCCNC(=O)CCc1ccc2n1[B-](F)(F)[N+]1=C(c3ccc[nH]3)C=CC1=C2)NCCCN1CCN(C2=Nc3ccccc3Oc3ccc(Cl)cc32)CC1 [Loxapine-a-2-NB590] ?
1.10

Please give the result for O=C(CCc1ccc2n1[B-](F)(F)[N+]1=C(c3ccc[nH]3)C=CC1=C2)NCc1ccc(C(=O)NCCOCCC(=O)N[C@@H]2CC[C@@]3(O)[C@H]4Cc5ccc(O)c6c5[C@@]3(CCN4CC3CC3)[C@H]2O6)cc1 [Naltrexone-3-NB590] too.
1.01

Please give the result for Cc1nc2n(c(=O)c1CCN1CCC(c3noc4cc(F)ccc34)CC1)CCCC2OC(=O)NCCOCCOCCOCCOCCNC(=O)CCc1ccc2n1[B-](F)(F)[N+]1=C(c3ccc[nH]3)C=CC1=C2 (stereo not drawn) [Risperidone-2-NB590] too.
0.94
